TARGET: human HPK1 protein (Homo sapiens, UniProt Q92918)
Construct: recombinant human HPK1 protein (a.a. 1-346) was expressed in Sf9 insect cells; GST (N); purchased Signalchem M23-11G; host or cells: Sf9 insect cells (baculovirus)
Sequence (Q92918 1-346): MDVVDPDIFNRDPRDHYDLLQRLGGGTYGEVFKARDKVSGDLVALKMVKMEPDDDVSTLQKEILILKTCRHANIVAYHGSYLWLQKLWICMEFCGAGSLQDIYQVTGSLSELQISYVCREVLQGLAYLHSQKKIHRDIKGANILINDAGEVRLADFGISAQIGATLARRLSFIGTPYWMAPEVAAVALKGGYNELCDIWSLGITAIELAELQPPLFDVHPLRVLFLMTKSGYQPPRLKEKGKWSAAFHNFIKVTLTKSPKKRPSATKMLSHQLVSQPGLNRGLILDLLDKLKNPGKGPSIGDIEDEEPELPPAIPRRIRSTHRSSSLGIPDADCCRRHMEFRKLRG
PROTOCOL: Human HPK1 protein TR-FRET assay
Type: biochemical
CONDITION SET: 1 mM ATP, Table 19
// reported IC50 for each item listed

Reference set (5 entries):
CCN1CCN(Cc2ccc(NC(=O)N3CCc4ccc(Oc5cc(NC(C)=O)ncn5)cc4C3)cc2C(F)(F)F)CC1: < 500 nM
CCN1CCN(Cc2ccc(NC(=O)N3CC4CCC3c3cc(Oc5ccnc6[nH]ccc56)ccc34)cc2C(F)(F)F)CC1 (stereo not shown): 500 to 5000 nM
Cc1cc2c(Oc3ccc4c(c3)[C@H](C)N(C(=O)Nc3cnc(OC5CCN(C)CC5F)c(C(F)(F)F)c3)CC4)ccnc2[nH]1 (stereo in doubt) [VI-10]: 500 to 5000 nM
CCN1CCN(Cc2ccc(NC(=O)N3CCc4ccc(Oc5cc(Nc6ncc[nH]6)ncn5)cc4C3)cc2C(F)(F)F)CC1: < 500 nM
CCN1CCN(Cc2ccc(NC(=O)N3CCc4ccc(Oc5ccnc6[nH]c(-c7cnn(C)c7)cc56)cc4[C@@H]3C)cc2C(F)(F)F)CC1: < 500 nM

The reported IC50 value, human HPK1 protein (Homo sapiens, UniProt Q92918), for CCC1c2cc(Oc3ccnc4[nH]ccc34)ccc2CCN1C(=O)Nc1ccc(CN2CCN(CC)CC2)c(C(F)(F)F)c1 (stereo not shown) reads 500 to 5000 nM

The observed IC50 for CCN1CCN(Cc2ccc(NC(=O)N3CCc4c(F)cc(Oc5ccnc6[nH]ccc56)cc4C3C)cc2C(F)(F)F)CC1 (stereo not shown) [IV-15] when tested with human HPK1 protein (Homo sapiens, UniProt Q92918) stands at < 500 nM
